// data source = PubChem BioAssay AID330

# Test system: P388 leukemia ip, CD2F1 mice, survival T/C
# experiment.description: NCI In Vivo Anticancer Drug Screen. Data for tumor model P388 Leukemia (intraperitoneal) in CD2F1 (CDF1) mice
# measurement.setup: endpoint: median survival time; dose: 100.0 mg/kg/injection; schedule: Q04DX003 (ip); vehicle: saline with Tween-80
Inconclusive results and toxic doses are left out. The calls were made as follows: active = survival T/C of 150% or more; inactive = T/C below 125% in these data.
Respond only with the outcome that fits, drawn from true (active), false (inactive)

Please review the following examples before continuing.
1) CC1(C)OCC2OC=CC(=O)C2O1 (stereo not drawn) ... false
2) CCOC(=O)NC(=O)CCC(=O)Nc1ccc2ccccc2c1 ... false
3) c1cc2c3c(c1)nc(CCc1nc4cccc5c4n1CCC5)n3CCC2 ... false

query: # lookup: test call for "CN(C)c1ccc(Nc2c3ccccc3nc3ccccc23)cc1"
result: true

query: Repeat with "CCOC(OCC)c1ccc(Cl)cc1"
result: false

query: Repeat with NC(Cc1ccc(O)cc1)C(=O)OC1CCCCC1 (stereo not drawn)
result: false

query: Repeat with "O=C/C=C/c1ccc([N+](=O)[O-])cc1"
result: false

query: Repeat with "CN(C)CCCN1c2ccc(O)cc2Sc2ccc(Cl)cc21"
result: false

query: Repeat with "COc1cccc(/C=C/C(=O)c2ccc(Cl)cc2)c1OC"
result: false

query: Repeat with "Cc1cnc2c(N)nn(-c3ccccc3)c2n1"
result: false

query: Repeat with COC(=O)C1CC(c2ccccc2)N(c2ccccc2)O1 (stereo not drawn) (tested in a mixture with another compound)
result: false

query: Repeat with CCCCC(CC)COC(OCC(CC)CCCC)C(OCC(CC)CCCC)OCC(CC)CCCC (stereo not drawn)
result: false

query: Repeat with "CC(C)c1c2ccccc2nn1-c1ccccc1"
result: false

query: Repeat with "Nc1c(Br)cc2c(c1Br)Cc1cc(Br)ccc1-2"
result: false

query: Repeat with "CCN(CC)CCN1C(=O)CN=C(c2ccc[nH]2)c2cc(Cl)ccc21"
result: false

query: Repeat with "C(=C1c2ccccc2-c2ccccc21)c1ccccc1"
result: false

query: Repeat with "CCOC(=O)c1cn(C)c2c1C(O)=C(C(=O)OC)CC(=O)N2"
result: false

query: Repeat with "Cc1cc(N)c(C)c([N+](=O)[O-])c1"
result: false

query: Repeat with CCOC(=O)C1CC1(C(=O)OCC)C(=O)OCC (stereo not drawn)
result: false

query: Repeat with "O=c1[nH]cc(S)c(=O)[nH]1"
result: false

* * *

# Test system: P388 leukemia ip, CD2F1 mice, survival T/C
# experiment.description: NCI In Vivo Anticancer Drug Screen. Data for tumor model P388 Leukemia (intraperitoneal) in CD2F1 (CDF1) mice
# measurement.setup: endpoint: median survival time; dose: 50.0 mg/kg/injection; schedule: Q01DX009 (ip); vehicle: Klucel (hydroxypropylcellulose) (HPC); higher = longer survival
Inconclusive results and toxic doses are left out.
outcome.measure: T/C

Use these answered entries as a reference point.
1. O=C1CC2(CCCC2)C(=O)N1c1ccc(O)c(CN2CCCCC2)c1 ... 99 % of control
2. CC(=O)OC1CCC2(C)C(CCC3C2CCC2(C)C3CC(CC(=O)O)C2OC(C)=O)C1 (configuration not stated) ... 92 % of control
3. CCOC(=O)C(CC)Oc1ccc(Cl)cc1 (configuration not stated) ... 102 % of control
4. Cc1ccc(NC(=O)Nc2cccnc2)cc1NC(=O)Nc1cccnc1 ... 102 % of control
5. Nc1cc2c(cc1O)C1C(C3C2C2(Cl)C(Cl)C(Cl)C3(Cl)C2(Cl)Cl)C2(Cl)C(Cl)C(Cl)C1(Cl)C2(Cl)Cl (configuration not stated) ... 100 % of control

query: Given the entry FC1OC1(F)C12CC3CC(CC(C3)C1)C2 (configuration not stated) , report its measured T/C.
result: 106 % of control

query: Repeat with "CCCCNC(=O)C(c1ccccc1)c1ccccc1"
result: 99 % of control

query: Repeat with "Cc1cc(C)cc(N(C2=NCCS2)C2=NCCS2)c1"
result: 101 % of control

query: Repeat with "CCCCC(=O)/C=C/c1ccc(Cl)c(Cl)c1"
result: 98 % of control
